For each entry below, report its Kd value.
- Experimental Target: T1, full-length RIG-I (human, UniProt O95786 1-925)
- T1 sequence: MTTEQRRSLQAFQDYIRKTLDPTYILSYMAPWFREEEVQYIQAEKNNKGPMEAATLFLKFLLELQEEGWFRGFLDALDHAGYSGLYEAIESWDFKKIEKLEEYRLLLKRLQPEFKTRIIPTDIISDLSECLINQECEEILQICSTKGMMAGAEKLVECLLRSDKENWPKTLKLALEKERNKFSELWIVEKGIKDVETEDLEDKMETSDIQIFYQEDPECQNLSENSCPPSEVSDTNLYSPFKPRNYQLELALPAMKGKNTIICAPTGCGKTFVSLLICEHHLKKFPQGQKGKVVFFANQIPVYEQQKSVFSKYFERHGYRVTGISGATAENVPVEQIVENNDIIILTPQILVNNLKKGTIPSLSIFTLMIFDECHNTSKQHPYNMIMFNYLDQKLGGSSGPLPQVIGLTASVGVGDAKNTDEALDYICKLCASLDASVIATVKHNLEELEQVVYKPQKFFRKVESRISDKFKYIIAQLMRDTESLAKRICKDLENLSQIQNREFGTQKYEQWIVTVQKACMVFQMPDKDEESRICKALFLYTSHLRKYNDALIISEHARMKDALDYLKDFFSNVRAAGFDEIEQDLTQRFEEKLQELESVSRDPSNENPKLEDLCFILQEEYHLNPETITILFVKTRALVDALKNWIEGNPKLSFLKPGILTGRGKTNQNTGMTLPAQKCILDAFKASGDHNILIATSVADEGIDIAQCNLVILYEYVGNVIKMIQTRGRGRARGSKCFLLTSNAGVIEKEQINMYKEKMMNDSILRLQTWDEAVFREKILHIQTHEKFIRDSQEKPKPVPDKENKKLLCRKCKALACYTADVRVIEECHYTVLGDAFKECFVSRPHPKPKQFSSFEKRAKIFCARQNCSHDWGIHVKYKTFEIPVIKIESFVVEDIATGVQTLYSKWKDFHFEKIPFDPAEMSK
- Experimental Protocol: EMSA
Form entry: value (nM) — number only.

Ask: Form field: reported Kd of 5'-ppp 14 dsRNA (dsRNA, 5'-triphosphate on top strand) RNA 1: ACCUCCCACCCCCG RNA 2: CGGGGGUGGGAGGU
Result: 0.159

Ask: Now try 5'-OH 14 dsRNA (dsRNA, 5'-OH on top strand) RNA 1: ACCUCCCACCCCCG RNA 2: CGGGGGUGGGAGGU .
Result: 20
